Molecular target: T1, Fc fused human IL-18Rα (human, UniProt Q13478 19-329, limits assumed)
T1 construct: also called IL-18Rα monomer; IL-18 receptor alpha; not shown: Fc part
T1 sequence (looked up): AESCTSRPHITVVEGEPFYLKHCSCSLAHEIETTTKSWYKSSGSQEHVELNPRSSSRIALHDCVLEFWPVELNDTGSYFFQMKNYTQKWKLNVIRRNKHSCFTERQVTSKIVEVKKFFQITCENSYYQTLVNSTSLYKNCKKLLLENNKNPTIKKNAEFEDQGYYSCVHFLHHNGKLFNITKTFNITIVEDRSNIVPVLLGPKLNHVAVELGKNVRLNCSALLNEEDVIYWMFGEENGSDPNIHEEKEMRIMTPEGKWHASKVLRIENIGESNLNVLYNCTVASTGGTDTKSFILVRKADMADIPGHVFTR
Test: SPR, Fc-IL-18Rα captured, 1:1 model
// reported kon for each item listed
API: value field is a number in M⁻¹ s⁻¹; no unit string.

Input: What value of kon has been recorded for this entry: Modified IL-18 polypeptide of SEQ ID NO: 70 (E6K, K53A, C38S, C76S, C127S) (ligand) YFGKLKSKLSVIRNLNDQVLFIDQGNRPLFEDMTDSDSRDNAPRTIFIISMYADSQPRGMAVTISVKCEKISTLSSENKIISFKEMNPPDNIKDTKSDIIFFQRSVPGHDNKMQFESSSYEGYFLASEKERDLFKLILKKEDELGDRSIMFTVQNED
Output: 92600

Input: Here is the next binder: Modified IL-18 polypeptide of SEQ ID NO: 71 with a 30 kDa PEG attached at residue C68 (E6K, C38S, K53A, C68-30kDPEG) (ligand, 30 kDa PEG on Cys 68 (30 kDa DBCO-polyethylene glycol clicked to a bromoacetamido-PEG5-azide linker on the cysteine), also called 71 + PEG) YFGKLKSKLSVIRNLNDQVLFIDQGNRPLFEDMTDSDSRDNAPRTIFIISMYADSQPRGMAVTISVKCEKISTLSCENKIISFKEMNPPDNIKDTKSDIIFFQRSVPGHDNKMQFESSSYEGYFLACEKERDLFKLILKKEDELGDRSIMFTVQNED
Output: 31800
